# Assay target: T1, cyno FcRn/b2M (cyno, UniProt Q8SPV9 24-297; Q8SPW0 21-119, biotinylated)
# T1 construct: bought recombinant biotinylated protein (Immunitrack ITF05 or ACRO FCM-C82W5); also called cFcRn; cFcRn/cb2M
# T1 sequence (Q8SPV9 24-297 limits assumed, chain 1 of 2): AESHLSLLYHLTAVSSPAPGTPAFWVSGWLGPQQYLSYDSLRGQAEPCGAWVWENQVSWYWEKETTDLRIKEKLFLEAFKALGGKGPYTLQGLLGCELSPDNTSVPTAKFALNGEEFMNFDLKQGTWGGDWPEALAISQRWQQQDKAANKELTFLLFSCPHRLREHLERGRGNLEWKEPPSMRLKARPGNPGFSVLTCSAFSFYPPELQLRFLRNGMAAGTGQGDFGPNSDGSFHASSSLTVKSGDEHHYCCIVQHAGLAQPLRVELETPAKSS
# T1 sequence (Q8SPW0 21-119 limits assumed, chain 2 of 2): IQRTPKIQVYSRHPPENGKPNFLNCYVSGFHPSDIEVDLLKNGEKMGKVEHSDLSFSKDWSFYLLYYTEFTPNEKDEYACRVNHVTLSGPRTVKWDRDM
# Experiment description: SPR pH 7.4;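 also: surface plasmon resonance kinetics, periplasmic extracts diluted 1:10 flowed over immobilized target at 25 °C, 120 s association then 600–3600 s dissociation, buffer with 150 mM NaCl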
Assign class by koff: not lower than 0.04 s⁻¹ means Condition met; lower than 0.04 s⁻¹ means Condition not met.

As a guide, the following entries are already answered.
Binder | Assigned category
T0263018B11 T28I (VHH, name in Kabat numbering, FLAG3-His6 tagged) VHH: EVQLVESGGGVVQPGGSLRLSCAASGFIFSSYAMYWVRQAPGKGLEWVSAISSGGGSTDYADSVKGRFTISRDNSKNTLYLQMNSLRPEDTALYYCAADTLYTSLTWYSYWGQGTLVTVSS | Condition not met
T0263018B11 F29Q (VHH, name in Kabat numbering, FLAG3-His6 tagged) VHH: EVQLVESGGGVVQPGGSLRLSCAASGFTQSSYAMYWVRQAPGKGLEWVSAISSGGGSTDYADSVKGRFTISRDNSKNTLYLQMNSLRPEDTALYYCAADTLYTSLTWYSYWGQGTLVTVSS | Condition met
T0263018B11 T57M (VHH, name in Kabat numbering, FLAG3-His6 tagged) VHH: EVQLVESGGGVVQPGGSLRLSCAASGFTFSSYAMYWVRQAPGKGLEWVSAISSGGGSMDYADSVKGRFTISRDNSKNTLYLQMNSLRPEDTALYYCAADTLYTSLTWYSYWGQGTLVTVSS | Condition not met
T0263018B11 A94S (VHH, name in Kabat numbering, FLAG3-His6 tagged) VHH: EVQLVESGGGVVQPGGSLRLSCAASGFTFSSYAMYWVRQAPGKGLEWVSAISSGGGSTDYADSVKGRFTISRDNSKNTLYLQMNSLRPEDTALYYCASDTLYTSLTWYSYWGQGTLVTVSS | Condition met
T0263018B11 D58E (VHH, name in Kabat numbering, FLAG3-His6 tagged) VHH: EVQLVESGGGVVQPGGSLRLSCAASGFTFSSYAMYWVRQAPGKGLEWVSAISSGGGSTEYADSVKGRFTISRDNSKNTLYLQMNSLRPEDTALYYCAADTLYTSLTWYSYWGQGTLVTVSS | Condition not met

stdin: Exam item: decide whether the reported koff for T0263018B11 S30Q (VHH, name in Kabat numbering, FLAG3-His6 tagged) VHH: EVQLVESGGGVVQPGGSLRLSCAASGFTFQSYAMYWVRQAPGKGLEWVSAISSGGGSTDYADSVKGRFTISRDNSKNTLYLQMNSLRPEDTALYYCAADTLYTSLTWYSYWGQGTLVTVSS is at least 0.04 s⁻¹.
stdout: Condition not met

stdin: Assess whether reported koff for T0263018B11 Y32T (VHH, name in Kabat numbering, FLAG3-His6 tagged) VHH: EVQLVESGGGVVQPGGSLRLSCAASGFTFSSTAMYWVRQAPGKGLEWVSAISSGGGSTDYADSVKGRFTISRDNSKNTLYLQMNSLRPEDTALYYCAADTLYTSLTWYSYWGQGTLVTVSS sits at 0.04 s⁻¹ or higher.
stdout: Condition met

Reference for the values: patent US20240132624A1
